pIC50: −log10 of the molar value.
A short record of pIC50 observed with Acetylcholinesterase (Electrophorus electricus, UniProt O42275) follows.
Sequence (O42275 whole entry): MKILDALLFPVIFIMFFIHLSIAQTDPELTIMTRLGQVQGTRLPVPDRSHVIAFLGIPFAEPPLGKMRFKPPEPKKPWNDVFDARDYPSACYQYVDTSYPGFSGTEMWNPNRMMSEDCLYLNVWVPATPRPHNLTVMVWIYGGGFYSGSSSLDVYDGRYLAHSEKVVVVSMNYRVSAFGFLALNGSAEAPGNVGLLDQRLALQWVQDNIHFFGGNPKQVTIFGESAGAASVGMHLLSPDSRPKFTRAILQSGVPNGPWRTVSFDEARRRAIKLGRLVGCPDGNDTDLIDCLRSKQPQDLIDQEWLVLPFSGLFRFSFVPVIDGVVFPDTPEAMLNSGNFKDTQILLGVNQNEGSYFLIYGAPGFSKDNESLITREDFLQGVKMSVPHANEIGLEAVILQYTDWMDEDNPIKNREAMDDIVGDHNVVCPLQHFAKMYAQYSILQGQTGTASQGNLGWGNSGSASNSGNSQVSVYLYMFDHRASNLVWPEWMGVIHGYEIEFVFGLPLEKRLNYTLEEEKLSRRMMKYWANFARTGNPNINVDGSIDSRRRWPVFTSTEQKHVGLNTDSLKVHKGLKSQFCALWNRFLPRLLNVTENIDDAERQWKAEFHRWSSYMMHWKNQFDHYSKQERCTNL
Observable: pIC50

>>> print(df.to_string())
                            chemical_string  observable  measurement_qualifier  measured_number
0  CCN(Cc1cccc2[nH]c3cc(Cl)ccc3c12)C(=O)/C=C/c1ccc(O)c(OC)c1       pIC50                      =             5.72
1             CC(C)NCc1cccc2[nH]c3ccccc3c12       pIC50                      =             4.67
2  COc1ccc2c(c1)[nH]c1cccc(CN(Cc3ccccc3)C(=O)/C=C/c3ccc(O)c(OC)c3)c12       pIC50                      <             4.00
3  COc1ccc2c(c1)[nH]c1cccc(CN(C(=O)/C=C/c3ccc(O)c(OC)c3)C3CCCC3)c12       pIC50                      =             4.05
4  COc1cc(/C=C/C(=O)N(Cc2ccccc2)Cc2cccc3[nH]c4ccccc4c23)ccc1O       pIC50                      <             4.00
5  COc1cc(/C=C/C(=O)N(Cc2cccc3[nH]c4ccccc4c23)C2CCCC2)ccc1O       pIC50                      <             4.00
6  COc1cc(/C=C/C(=O)N(Cc2cccc3[nH]c4ccccc4c23)C(C)C)ccc1O       pIC50                      =             4.95
7  COc1cc(/C=C/C(=O)N(Cc2cccc3[nH]c4ccccc4c23)C2CCCCC2)ccc1O       pIC50                      <             4.00
8  CCN(Cc1cccc2[nH]c3cc(OC)ccc3c12)C(=O)/C=C/c1ccc(O)c(OC)c1       pIC50                      =             4.21

###

Protocol: Antioxidant activity assessed as galvinoxyl radical scavenging activity at 50 uM after 19 hrs by UV spectrophotometric analysis
Format: physicochemical
Activity strictly less than 50% = MET. Otherwise NOT MET.

                                   molecule  assigned_category
0  CCN(Cc1cccc2[nH]c3cc(Cl)ccc3c12)C(=O)/C=C/c1ccc(O)c(OC)c1            NOT MET
1  COc1ccc2c(c1)[nH]c1cccc(CN(C(=O)/C=C/c3ccc(O)c(OC)c3)C3CCCCC3)c12            NOT MET
2  COc1cc(/C=C/C(=O)N(Cc2cccc3[nH]c4ccccc4c23)C2CCCCC2)ccc1O                MET
3  COc1cc(/C=C/C(=O)N(Cc2cccc3[nH]c4ccccc4c23)C(C)C)ccc1O            NOT MET
4       COc1cc(/C=C/C(=O)O)ccc1O [FERULATE]            NOT MET

###

Protocol: Antioxidant activity assessed as DPPH radical scavenging activity at 50 uM after 4 hrs by UV spectrophotometric analysis
Assay type: physicochemical
Observable: Activity (%)

                                   compound  observable  measured_number
0  COc1ccc2c(c1)[nH]c1cccc(CN(C(=O)/C=C/c3ccc(O)c(OC)c3)C(C)C)c12    Activity             72.9
1  COc1cc(/C=C/C(=O)N(Cc2cccc3[nH]c4ccccc4c23)C2CCCC2)ccc1O    Activity             85.7
2  COc1cc(/C=C/C(=O)N(Cc2cccc3[nH]c4ccccc4c23)C2CCCCC2)ccc1O    Activity               72
3       COc1cc(/C=C/C(=O)O)ccc1O [FERULATE]    Activity               72
4  COc1cc(/C=C/C(=O)N(Cc2cccc3[nH]c4ccccc4c23)C(C)C)ccc1O    Activity             84.5

###

Protocol: Antioxidant activity assessed as DPPH radical scavenging activity at 1 uM after 4 hrs by UV spectrophotometric analysis
Type: physicochemical
Observable: Activity (%)

                                   molecule  measured_number
0  COc1cc(/C=C/C(=O)N(Cc2cccc3[nH]c4ccccc4c23)C2CCCCC2)ccc1O             30.3
1  CCN(Cc1cccc2[nH]c3ccccc3c12)C(=O)/C=C/c1ccc(O)c(OC)c1             24.7
2  CCN(Cc1cccc2[nH]c3cc(OC)ccc3c12)C(=O)/C=C/c1ccc(O)c(OC)c1             33.1
3  CCN(Cc1cccc2[nH]c3cc(Cl)ccc3c12)C(=O)/C=C/c1ccc(O)c(OC)c1             41.8
4       COc1cc(/C=C/C(=O)O)ccc1O [FERULATE]             30.3
5  COc1cc(/C=C/C(=O)N(Cc2cccc3[nH]c4ccccc4c23)C(C)C)ccc1O             44.1
6  COc1cc(/C=C/C(=O)N(Cc2cccc3[nH]c4ccccc4c23)C2CCCC2)ccc1O             25.9
7  COc1ccc2c(c1)[nH]c1cccc(CN(C(=O)/C=C/c3ccc(O)c(OC)c3)C3CCCC3)c12             34.8
8  COc1ccc2c(c1)[nH]c1cccc(CN(C(=O)/C=C/c3ccc(O)c(OC)c3)C(C)C)c12             45.1
9  COc1ccc2c(c1)[nH]c1cccc(CN(C(=O)/C=C/c3ccc(O)c(OC)c3)C3CCCCC3)c12             38.6

###

Protocol: Antioxidant activity assessed as DPPH radical scavenging activity at 100 uM after 4 hrs by UV spectrophotometric analysis
Type: physicochemical
Observable: Activity (%)

In [3]: df
Out[3]:
                            chemical_string  measured_number
0  CCN(Cc1cccc2[nH]c3cc(Cl)ccc3c12)C(=O)/C=C/c1ccc(O)c(OC)c1             91.9
1  COc1cc(/C=C/C(=O)N(Cc2cccc3[nH]c4ccccc4c23)C(C)C)ccc1O             90.9
2  CCN(Cc1cccc2[nH]c3cc(OC)ccc3c12)C(=O)/C=C/c1ccc(O)c(OC)c1             94.9
3  CCN(Cc1cccc2[nH]c3ccccc3c12)C(=O)/C=C/c1ccc(O)c(OC)c1             86.3
4  COc1ccc2c(c1)[nH]c1cccc(CN(C(=O)/C=C/c3ccc(O)c(OC)c3)C3CCCC3)c12             90.4

###

Consider the following compounds and their measured IC50 readings.
System name: Cholinesterase (Equus caballus, UniProt P81908)
Sequence (P81908 whole entry): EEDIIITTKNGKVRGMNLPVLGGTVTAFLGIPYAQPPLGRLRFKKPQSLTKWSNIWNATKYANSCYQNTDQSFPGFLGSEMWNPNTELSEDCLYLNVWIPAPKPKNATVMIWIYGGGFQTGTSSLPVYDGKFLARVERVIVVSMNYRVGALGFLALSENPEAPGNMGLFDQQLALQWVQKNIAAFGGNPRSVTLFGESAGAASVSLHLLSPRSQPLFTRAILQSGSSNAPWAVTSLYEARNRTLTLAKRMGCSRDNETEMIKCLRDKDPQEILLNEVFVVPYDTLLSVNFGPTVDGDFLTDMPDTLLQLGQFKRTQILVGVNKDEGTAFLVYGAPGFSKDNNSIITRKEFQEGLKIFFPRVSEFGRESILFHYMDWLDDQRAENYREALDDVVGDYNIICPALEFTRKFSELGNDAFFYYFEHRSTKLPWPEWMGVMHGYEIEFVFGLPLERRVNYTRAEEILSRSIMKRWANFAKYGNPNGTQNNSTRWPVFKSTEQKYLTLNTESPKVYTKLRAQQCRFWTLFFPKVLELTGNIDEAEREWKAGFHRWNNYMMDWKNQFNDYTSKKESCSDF
Observable: IC50

In [3]: df
Out[3]:
                             chemical_string  observable   result
 0  COc1ccc2c(c1)[nH]c1cccc(CN(C(=O)/C=C/c3ccc(O)c(OC)c3)C3CCCC3)c12        IC50  25.9 µM
 1  COc1ccc2c(c1)[nH]c1cccc(CN(C(=O)/C=C/c3ccc(O)c(OC)c3)C(C)C)c12        IC50  13.9 µM
 2  COc1cc(/C=C/C(=O)N(Cc2cccc3[nH]c4ccccc4c23)C2CCCC2)ccc1O        IC50  31.6 µM
 3            CCNCc1cccc2[nH]c3cc(Cl)ccc3c12        IC50   1.9 µM
 4             CC(C)NCc1cccc2[nH]c3ccccc3c12        IC50   8.9 µM
 5  COc1cc(/C=C/C(=O)N(Cc2cccc3[nH]c4ccccc4c23)C2CCCCC2)ccc1O        IC50    22 µM
 6  CCN(Cc1cccc2[nH]c3cc(OC)ccc3c12)C(=O)/C=C/c1ccc(O)c(OC)c1        IC50  19.8 µM
 7  CCN(Cc1cccc2[nH]c3cc(Cl)ccc3c12)C(=O)/C=C/c1ccc(O)c(OC)c1        IC50   3.1 µM
 8  CCN(Cc1cccc2[nH]c3ccccc3c12)C(=O)/C=C/c1ccc(O)c(OC)c1        IC50  13.8 µM
 9  COc1cc(/C=C/C(=O)N(Cc2cccc3[nH]c4ccccc4c23)C(C)C)ccc1O        IC50  12.7 µM
10  COc1ccc2c(c1)[nH]c1cccc(CN(C(=O)/C=C/c3ccc(O)c(OC)c3)C3CCCCC3)c12        IC50  20.5 µM

###

Protocol: Antioxidant activity assessed as DPPH radical scavenging activity at 100 uM after 4 hrs by UV spectrophotometric analysis
Type: physicochemical
Consider the following compounds and their measured Activity readings.
Observable: Activity (%)

>>> df
                                   compound  measured_number
0       COc1cc(/C=C/C(=O)O)ccc1O [FERULATE]             92.2
1  COc1ccc2c(c1)[nH]c1cccc(CN(C(=O)/C=C/c3ccc(O)c(OC)c3)C3CCCCC3)c12             88.6
2  COc1ccc2c(c1)[nH]c1cccc(CN(C(=O)/C=C/c3ccc(O)c(OC)c3)C(C)C)c12               98
3  COc1cc(/C=C/C(=O)N(Cc2cccc3[nH]c4ccccc4c23)C2CCCC2)ccc1O             90.3
4  COc1cc(/C=C/C(=O)N(Cc2cccc3[nH]c4ccccc4c23)C2CCCCC2)ccc1O             89.2

Data credit: ChEMBL document CHEMBL3751731
